Answer each item with its documented inhibition.
Target Under Test: Nitric oxide synthase 1 (Rattus norvegicus) (UniProt P29476)
Sequence (P29476 whole entry): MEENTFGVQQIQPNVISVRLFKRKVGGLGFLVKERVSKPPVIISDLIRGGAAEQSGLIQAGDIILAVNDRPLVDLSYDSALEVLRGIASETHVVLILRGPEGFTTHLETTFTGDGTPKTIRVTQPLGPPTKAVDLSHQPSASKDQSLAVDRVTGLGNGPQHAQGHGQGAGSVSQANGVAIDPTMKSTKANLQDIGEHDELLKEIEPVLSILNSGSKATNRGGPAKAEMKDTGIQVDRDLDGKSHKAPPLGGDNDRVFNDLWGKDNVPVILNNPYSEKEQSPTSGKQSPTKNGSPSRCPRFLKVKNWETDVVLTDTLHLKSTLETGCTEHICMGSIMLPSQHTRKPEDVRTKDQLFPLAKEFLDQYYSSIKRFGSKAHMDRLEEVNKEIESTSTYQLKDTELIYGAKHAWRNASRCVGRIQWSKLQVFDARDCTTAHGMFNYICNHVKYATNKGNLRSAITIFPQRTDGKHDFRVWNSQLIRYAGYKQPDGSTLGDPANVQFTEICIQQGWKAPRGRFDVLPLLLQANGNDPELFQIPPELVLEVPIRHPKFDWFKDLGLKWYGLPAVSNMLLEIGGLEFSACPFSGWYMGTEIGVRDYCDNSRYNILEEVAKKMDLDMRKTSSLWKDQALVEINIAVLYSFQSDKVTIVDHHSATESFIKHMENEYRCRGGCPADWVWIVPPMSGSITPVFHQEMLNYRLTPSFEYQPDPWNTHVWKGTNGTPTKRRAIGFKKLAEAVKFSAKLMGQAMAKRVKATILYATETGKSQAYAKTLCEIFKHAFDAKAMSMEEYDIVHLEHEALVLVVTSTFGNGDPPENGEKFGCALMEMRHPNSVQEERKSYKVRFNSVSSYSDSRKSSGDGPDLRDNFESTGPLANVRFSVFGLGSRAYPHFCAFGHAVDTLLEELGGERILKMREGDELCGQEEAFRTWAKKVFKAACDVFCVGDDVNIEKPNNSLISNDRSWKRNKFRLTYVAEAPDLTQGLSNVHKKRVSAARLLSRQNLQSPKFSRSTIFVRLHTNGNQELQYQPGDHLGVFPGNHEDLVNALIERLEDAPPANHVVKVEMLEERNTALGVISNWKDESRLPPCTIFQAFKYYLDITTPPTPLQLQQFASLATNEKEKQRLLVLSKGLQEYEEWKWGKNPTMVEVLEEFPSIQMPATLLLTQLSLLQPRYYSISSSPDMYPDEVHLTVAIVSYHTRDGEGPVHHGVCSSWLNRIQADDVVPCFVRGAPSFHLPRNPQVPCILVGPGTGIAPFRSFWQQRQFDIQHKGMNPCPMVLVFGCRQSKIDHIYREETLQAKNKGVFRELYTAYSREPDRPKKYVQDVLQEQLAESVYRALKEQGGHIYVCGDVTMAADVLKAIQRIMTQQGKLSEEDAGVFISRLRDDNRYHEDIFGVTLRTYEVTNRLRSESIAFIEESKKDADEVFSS
Test Name: Effect on the activity of recombinant rat neuronal nitric oxide synthase as determined with radioactive L-arginine/L-citruline conversion assay
Parameters: concentration or dose not given beside the values
Condition Context: concentration not given here
One number for each entry, in %.

Illustrative cases are given below, each with its answer.
Compound	inhibition / %
O=[N+]([O-])c1cccc(O)c1O	94
O=[N+]([O-])c1ccc(O)c(O)c1	33
Cc1cc(O)c(O)cc1[N+](=O)[O-]	35
NCC(O)c1cc(O)c(O)cc1[N+](=O)[O-] (stereo unspecified)	78
NCCc1cc(O)c(O)cc1[N+](=O)[O-]	71

Any idea what its inhibition is? The compound is `Cc1cc([N+](=O)[O-])cc(O)c1O`
28
